- system name: Neurotensin receptor NTS1 (HT29 cells/membranes) (human), P30989
- Sequence (P30989 whole entry): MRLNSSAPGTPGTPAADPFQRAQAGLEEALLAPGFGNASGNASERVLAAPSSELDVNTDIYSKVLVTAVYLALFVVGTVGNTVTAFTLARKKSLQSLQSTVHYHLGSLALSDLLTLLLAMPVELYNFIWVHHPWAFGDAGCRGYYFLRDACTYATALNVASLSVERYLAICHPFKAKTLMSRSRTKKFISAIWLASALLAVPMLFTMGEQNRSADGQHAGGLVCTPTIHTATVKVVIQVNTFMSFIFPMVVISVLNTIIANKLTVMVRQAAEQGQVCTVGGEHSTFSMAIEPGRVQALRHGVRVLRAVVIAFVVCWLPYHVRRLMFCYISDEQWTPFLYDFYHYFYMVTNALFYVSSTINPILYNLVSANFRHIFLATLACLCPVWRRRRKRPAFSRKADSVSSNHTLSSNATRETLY
- assay info: competition, HT29 membranes
- measurement setup: modification not given
Measured Ki, listed per entry for reference.

binder | Ki [nM]
KPRRPYIL [DTPA(In)-NT-20.1] | 0.66
KPRRPYIL [DTPA(In)-NT-20.2] | 1.55
KPRRPYIL [NT-20.1] | 0.072
KPRRPYIL [NT-20.2] | 0.26
